Reference source: patent US4742073A

- protocol notes: Apparent partition coefficient 1-octanol/phosphate buffer pH 7.4
- Format: physicochemical
- run parameters: octanol/buffer, pH 7.4, di-esters (Table 3); read-out: log P octanol/buffer pH 7.4
Form field: logD (one value per entry).
Output: the number by itself.

>  <compound string>
CC[C@H](C(=O)OCc1ccccc1)[C@H](COC(=O)c1cccc(Cl)c1)Cc1cncn1C

>  <value measured>
4.93

$$$$

Record request: logD value, item `CC[C@H](C(=O)OCc1ccccc1)[C@H](COC(=O)c1ccccc1)Cc1cncn1C` 4.22

Record request: logD value, item `CC[C@H](C(=O)OCc1ccc(C)cc1)[C@H](COC(=O)c1ccccc1)Cc1cncn1C` 4.7

Record request: logD value, item `CC[C@H](C(=O)OCc1ccccc1)[C@H](COC(=O)Cc1ccccc1)Cc1cncn1C` 3.85
